Where these numbers come from: patent US12351585B2

- targetOfAssay: human phosphodiesterase-5 (PDE5) (Homo sapiens (Human), UniProt O76074)
- assayComment: PDE5 assay: formation of 5'GMP from cGMP, PDE5 enzyme isolated from human platelets
observedProperty: IC50 (nM)
The response must be a number in nM with no trailing unit.

Data point: CCCOc1ccc(S(=O)(=O)N2CCC(CCO)CC2)cc1-c1nn2c(CCC)c(/C=N/O)c(C)c2c(=O)[nH]1 [Compound 1r] ; IC50 = 0.16

---

- Test system: phenylephrine-precontracted rat aortic rings
- assayComment: Isometric tension studies on rat aortic rings (relaxation of phenylephrine-precontracted rings)
- conditionLabel: Rattus norvegicus, Intact Endothelium (E+)
observedProperty: pEC50
Friendly reminder that pEC50 comes from taking -log10 of the concentration in mol/L.

Just so you know, measured pEC50 for CCCOc1ccc(S(=O)(=O)N2CCC(CCO)CC2)cc1-c1nn2c(CCC)c(/C=N/O)c(C)c2c(=O)[nH]1 came out at 11.13
